Where do the numbers come from? From paper PMC7782785.

Tested on: P. aeruginosa LMG 6395
procedureDetails: microbe, parasite or virus in culture
conditionsUsed: LMG 6395
Where no end group is shown, it is not given here.
readoutType: MIC (µM)

Solved entries (count: 3):
> print(dat)
                       substance  recordedvalue
1  GIGKHVGKALKGLKGLLKGLGEC [L-7]             13
2         RIRKRIKKWLR-NH2 [L-14]             16
3         RIKRRIKKWLR-NH2 [L-15]             32

[a] KIVQRIKKWLR-NH2 [L-12]
[b] RIWVIWRR-NH2 [L-5]
### Prompt Could you determine which record has the numerically smaller MIC? Candidates: a and b Lab log: write the label of the selected item as the result.
### Response b

----------
System: P. aeruginosa LMG 6395
procedureDetails: microbe, parasite or virus in culture
conditionsUsed: LMG 6395
Where no end group is shown, it is not given here.
readoutType: MIC (µM)

> print(dat)
                substance  unitspec  recordedvalue
1  RIVQRIKKWLR-NH2 [L-11]        µM             16
2  KRIVQRIKKWLR-NH2 [L-8]        µM             16
3  AIVQRIKKWLR-NH2 [L-13]        µM             16

[1] RIVQRIKKWL-NH2 [L-10]
[2] VDKGSYLPRPTPPRPIYNRN-NH2 [L-3]
### Prompt Between the two listed entries 1 and 2 , which has its MIC at the higher number? Lab log: write the label of the selected item as the result.
### Response 2
(2: 32 µM, 1: 16 µM)

----------
Tested on: P. aeruginosa LMG 6395
procedureDetails: microbe, parasite or virus in culture
conditionsUsed: LMG 6395
Where no end group is shown, it is not given here.
In this section we review reported MIC values for a set of substances.

Solved entries (count: 3):
> print(dat)
                   substance  readouttype  recordedvalue
1   GNNRPVYIPQPRPPHPRL [L-1]          MIC         >64 µM
2       RIVQRIKKWR-NH2 [L-9]          MIC        >256 µM
3  VDKPPYLPRPRPPRRIYNR [L-2]          MIC         >64 µM

// next entry
### Prompt What does the data say about its MIC? Entry: RLLFRKIRRLKR [L-4]
### Response >128 µM
